// provenance: patent US7718801B2

biological target: PLK1-T210D (human active type PLK1) (Homo sapiens, UniProt P53350, T210D); construct: a baculovirus expressing full-length human PLK1 of which N terminus is fused with GST; GST (glutathione S-transferase) (N); made in house; host or cells: insect cells (baculovirus); assay: Measurement of the inhibitory effect against PLK1-T210D activity ([γ-33P]ATP, CDC25C-derived peptide substrate); format: biochemical; details: 50 μM ATP, 50 μM substrate peptide, 25° C., 20 minutes
Sequence (P53350 whole entry T210D, the tested form may be a part): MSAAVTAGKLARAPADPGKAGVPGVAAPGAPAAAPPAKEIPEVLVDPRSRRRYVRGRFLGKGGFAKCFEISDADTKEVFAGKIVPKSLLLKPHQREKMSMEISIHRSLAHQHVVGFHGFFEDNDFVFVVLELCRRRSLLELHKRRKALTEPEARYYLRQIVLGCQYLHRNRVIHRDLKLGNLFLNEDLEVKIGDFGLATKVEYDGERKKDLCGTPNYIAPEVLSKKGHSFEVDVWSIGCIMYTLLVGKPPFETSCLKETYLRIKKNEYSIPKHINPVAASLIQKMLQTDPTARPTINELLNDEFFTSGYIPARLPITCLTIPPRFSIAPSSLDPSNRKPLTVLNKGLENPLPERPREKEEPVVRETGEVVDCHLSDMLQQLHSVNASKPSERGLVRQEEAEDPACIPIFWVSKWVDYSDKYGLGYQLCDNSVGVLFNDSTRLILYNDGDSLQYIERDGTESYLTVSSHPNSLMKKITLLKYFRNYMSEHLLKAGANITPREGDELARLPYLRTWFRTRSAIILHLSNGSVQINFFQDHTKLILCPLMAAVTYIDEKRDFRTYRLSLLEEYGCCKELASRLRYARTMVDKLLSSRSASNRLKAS
quantity: pIC50
In textbook form, pIC50 equals minus log to base ten of the concentration in mol/L.

# annotated cases, reported pIC50 shown
COc1cccn2c(-c3nc(N[C@@H](C)c4ccc(N5CCNCC5)cc4)ncc3C#N)cnc12 [Example 158] ... 7.39
C[C@H](Nc1ncc(C#N)c(-c2cnc3c(C(F)(F)F)cccn23)n1)c1ccccc1 [Example 36] ... 7.80
Cc1cccn2c(-c3nc(N[C@@H](C)c4ccccc4)ncc3C#N)cnc12 [Example 8] ... 7.59

Ask | Quick one: pIC50 of C[C@H](Nc1ncc(Br)c(-c2cnc3c(Cl)cccn23)n1)c1ccccc1 [Example 28] ?
Reply | 7.38

Ask | Continue with Cc1cccn2c(-c3nc(N[C@@H](C)c4ccc(N)cc4)ncc3C#N)cnc12 [Example 112]
Reply | 7.33

* * *

test system: HeLaS3 cells; experiment: Inhibitory activity against PLK1 at cellular level: ratio of cells arrested at M phase (phospho-histone H3 Ser10, mitotic index); type: cell-based; details: Homo sapiens, HeLa S3; HeLaS3 cells synchronized at G1/S, 12 hours with compound; concentration inducing 50% of maximal M phase arrest; read-out: Inhibitory effect against cell proliferation
quantity: EC50 (nM)
Only the number, expressed in nM, is required.

# annotated cases, reported EC50 shown
C[C@H](Nc1ncc(C#N)c(-c2cnc3c(C(F)(F)F)cccn23)n1)c1ccccc1 ... 310
COc1cccn2c(-c3nc(N[C@@H](C)c4ccc(N5CCNCC5)cc4)ncc3C#N)cnc12 ... 180

# input for lookup
Ask | GET /values?readout=EC50&system=HeLaS3 cells&item= "Cc1cccn2c(-c3nc(N[C@@H](C)c4ccc(N)cc4)ncc3C#N)cnc12"
Reply | 340

* * *

biological target: full-length human PLK1 (Homo sapiens)
Sequence (P53350 whole entry): as the sequence (P53350 whole entry T210D, the tested form may be a part) above, with D210T counted along it
quantity: IC50 (nM)
Only the number, expressed in nM, is required.

Ask | Quick one: IC50 of "Cc1cccn2c(-c3nc(N[C@@H](C)c4ccccc4)ncc3C#N)cnc12" ?
Reply | 43
